Entry source: ChEMBL document CHEMBL1201862

Tested on: UO-31
protocol description: NCI tumour cell line growth inhibition, 48 h
The source made the active and inactive calls. Cut-off read from the data, not from the text of the source: active = GI50 up to about 1.1 µM and inactive = higher.
Bench note: report the call from Yes = active, No = inactive

Brc1cccc(Nc2ncnc3sc4c(c23)CCC2(C4)OCCO2)c1 :: No
N#CC(c1ccnc(Cl)n1)c1nc2ccccc2s1 (stereo not given) :: No
COc1ccc(/N=C2\C(=N/c3ccc(OC)cc3)N(c3ccc(N(C)C)cc3)C(=S)N2c2ccc(OC)cc2)cc1 :: No
CC(C)/C=C1\CCC(CN(C)C)C1=O (stereo not given) :: No
CCOC(=O)C(O)(NC(=O)c1ccccc1F)C(F)(F)F (stereo not given) :: No

Answer briefly: the call reported for `COC(=O)CSc1nnc(-c2ccc(O)c([N+](=O)[O-])c2)[nH]1` in this assay.
No

Answer briefly: the call reported for COC(=O)c1ccccc1C1CN=NC12Cc1ccc(C)c(C)c1C2=O (stereo not given) in this assay.
No

Answer briefly: the call reported for `CC[C@@]1(O)C(=O)OCc2c1cc1n(c2=O)Cc2c-1nc1ccccc1c2/C=N/NC(=O)C[N+](C)(C)C` in this assay.
Yes

Answer briefly: the call reported for O=C1C=CC2(O)OCC3C=C4O[C@@H]5OC6(CCCCC6)O[C@@H]5C4[C@@H]2[C@@H]13 (stereo not given in full) in this assay.
No

Answer briefly: the call reported for Cc1cccc(C)c1NC(=O)C(Cc1c[nH]c2ccccc12)NC(=O)OCc1ccccc1 (stereo not given) in this assay.
No

###

System: CCRF-CEM
protocol description: NCI tumour cell line growth inhibition, 48 h
Active and inactive are the calls of the source. No stated cut-off is given here; in the data, active = GI50 up to about 1.1 µM and inactive = higher.
Bench note: report the call from active, inactive

Answer briefly: the call reported for `N#CC(C#N)=Cn1c(=S)[nH]c2ccc([N+](=O)[O-])cc21` in this assay.
inactive

Answer briefly: the call reported for `O=C1Nc2ccc(Br)cc2/C1=N/Nc1ccccc1[N+](=O)[O-]` in this assay.
inactive

Answer briefly: the call reported for `CCOC(=O)/C=C(/C(=O)OCC)n1cc(C)c(=O)n(/C(=C/C(=O)OCC)C(=O)OCC)c1=O` in this assay.
active

Answer briefly: the call reported for `COc1ccc2c(c1OC)C(=O)N/C2=C\c1c(CCN(C)C)cc2c(c1OC)OCO2` in this assay.
inactive

Answer briefly: the call reported for `O=C(CC1=Nc2nnc(CCCCCCCc3nnc4n3C(=O)C(CC(=O)c3ccccc3)=N4)n2C1=O)c1ccccc1` in this assay.
inactive

###

Tested on: RPMI-8226
protocol description: NCI tumour cell line growth inhibition, 48 h
Activity calls are given as the source filed them. Cut-off read from the data, not from the text of the source: active = GI50 up to about 1.1 µM and inactive = higher.
Bench note: report the call from TRUE (active), FALSE (inactive)

Known results for molecules:
O=[N+]([O-])C=C(c1ccc(Cl)cc1)c1ccc(Cl)cc1 :: FALSE
COc1c(C)c(OC)c2c(c1O)[C@@H]1[C@@H]3Cc4c(OC)c(C)c(OC)c(O)c4[C@H](CNC(=O)c4cnc5ccccc5n4)N3[C@@H](C#N)[C@H](C2)N1C :: TRUE
COc1ccc(-c2cc(C3CC3)nc(SCC(=O)O)c2C#N)cc1 :: FALSE
Clc1nc(Nc2nc3ccccc3[nH]2)nc(Cl)c1-c1ccccc1 :: FALSE

Answer briefly: the call reported for `S=C(S)N1CCN(c2cccc(Cl)c2)CC1` in this assay.
FALSE

###

Tested on: SF-295
protocol description: NCI tumour cell line growth inhibition, 48 h
The source made the active and inactive calls. Rule as the data show it: active = GI50 up to about 1.1 µM and inactive = higher.
recorded endpoint: GI50

Solved cases below.
N#C[C@H](C(=O)c1ccccc1F)c1nc2ccccc2s1 :: 16.1 µM (inactive)
O=C(Nc1ccc2[nH]c3c(-c4ccccc4)nccc3c2c1)c1ccccc1[N+](=O)[O-] :: 1.64 µM (inactive)
O=C1/C(=C/c2ccc(O)c(CN3CCCCC3)c2)CCC/C1=C\c1ccc(O)c(CN2CCCCC2)c1 :: 3.25 µM (inactive)

Quick one: GI50 for NCCCC1NC(=O)/C(=C(O)/C=C/C2CCC[C@@H]2CC2SCCS2)C1=O (stereo not given in full) ?
> 100 µM (inactive)

Quick one: GI50 for `COc1ccc(-c2cc(-c3ccccc3)nc3c2CC(=O)Nc2ccccc2-3)cc1OC` ?
> 100 µM (inactive)

Quick one: GI50 for COC(=O)/C=C/C1C2C3(CCC(C)C12C)OCCS3 (stereo not given) ?
> 100 µM (inactive)

Quick one: GI50 for OC(CCl)CN1CC[N+]2(CC1)CC[N+]1(CCN(CC(O)CCl)CC1)CC2 (stereo not given) [PROSPIDIUM CHLORIDE] ?
> 50 µM (inactive)

Quick one: GI50 for `CCNCCNc1c2ccccc2nc2ccccc12` ?
1.21 µM (inactive)

Quick one: GI50 for `C=CCN1/C(=C2\SC(=S)N(c3ccc(C)cc3)C2=O)Sc2c1nc[nH]c2=O` ?
88.7 µM (inactive)

Quick one: GI50 for `COC(=O)CSc1nnc(-c2ccc(O)c([N+](=O)[O-])c2)[nH]1` ?
> 100 µM (inactive)

Quick one: GI50 for `NS(=O)(=O)c1ccc(NC(=O)c2ccc3nc4ccccc4c(Nc4ccc(S(N)(=O)=O)cc4)c3c2)cc1` ?
> 100 µM (inactive)

Quick one: GI50 for CCOC(=O)C(NC(=O)c1ccccc1)(Nc1ccc(S(=O)(=O)Nc2ncccn2)cc1)C(F)(F)F (stereo not given) ?
> 100 µM (inactive)

Quick one: GI50 for `COc1cc(Nc2cnc3ccc(C(F)(F)F)cc3n2)cc(OC)c1OC` ?
5.53 µM (inactive)

Quick one: GI50 for `CC(/C=C/c1ccccc1)=N\NC(N)=S` ?
21.5 µM (inactive)

Quick one: GI50 for `Brc1cccc(Nc2ncnc3sc4c(c23)CCC2(C4)OCCO2)c1` ?
32.5 µM (inactive)

Quick one: GI50 for `COc1ccc(-c2[nH]c(-c3ccc(OC)cc3)c(-c3ccccn3)c2-c2ccccn2)cc1` ?
38.2 µM (inactive)

Quick one: GI50 for O=S(=O)(C1=CC(S(=O)(=O)c2ccccc2)CN(Cc2ccccc2)C1c1cccc2ccccc12)c1ccccc1 (stereo not given) ?
> 69 µM (inactive)

Quick one: GI50 for `NC(=S)Nc1c(S(N)(=O)=O)cc(S(N)(=O)=O)c(Cl)c1Cl` ?
> 100 µM (inactive)

Quick one: GI50 for CSc1nc(NC2OCC(OC(C)=O)C(OC(C)=O)C2OC(C)=O)c(/N=C(\C)C(C)=O)c(=O)[nH]1 (stereo not given) ?
> 100 µM (inactive)

Quick one: GI50 for `CN(/N=C/c1ccccn1)C1=NCCN1` ?
> 100 µM (inactive)

###

GI50 values by entry
System: HCT-116
protocol description: NCI tumour cell line growth inhibition, 48 h
Active and inactive are the calls of the source. No stated cut-off is given here; in the data, active = GI50 up to about 1.1 µM and inactive = higher.

C=CCOc1ccc(C(=N/NC(=O)c2ccccc2)/N=N/c2ccc([N+](=O)[O-])cc2)cc1OC :: 58.6 µM (inactive)
CNS(=O)(=O)NNS(=O)(=O)c1ccc(Br)cc1 :: 99.3 µM (inactive)
COc1ccc(OC)c(-c2cc(C(=O)O)c3cc4ccccc4cc3n2)c1 :: > 100 µM (inactive)
Cc1ccc(C)c(NC(=O)CCC(=O)CC(=O)C(C)(C)C)c1 :: > 100 µM (inactive)

Now look at this entry.
Quick one: GI50 for `O=C(CC1=Nc2nnc(CCCCCCCc3nnc4n3C(=O)C(CC(=O)c3ccccc3)=N4)n2C1=O)c1ccccc1` ?
> 100 µM (inactive)

###

Tested on: HCT-116
protocol description: NCI tumour cell line growth inhibition, 48 h
Activity calls are given as the source filed them. Cut-off read from the data, not from the text of the source: active = GI50 up to about 1.1 µM and inactive = higher.
recorded endpoint: GI50

CCCCCCCCCCCCCP(=O)(O)OCC :: > 100 µM (inactive)
Cc1ccc(NC(=O)CC(=O)N2N=C(N(c3ccccc3)c3ccccc3)CC2c2ccccc2)cc1 (stereo not given) :: > 100 µM (inactive)
COc1ccc(OC)c2[s+]snc12 :: 57.7 µM (inactive)
N#Cc1c(-c2ccc([N+](=O)[O-])cc2)c(C#N)c(=O)n(NS(=O)(=O)c2ccccc2)c1-c1ccccc1 :: > 100 µM (inactive)

Now look at this entry.
Quick one: GI50 for `CC[C@]12C=CCN3CC[C@@]4(c5cc(Br)c(OC)cc5N(C)[C@H]4[C@@](O)(C(=O)NN)[C@@H]1O)[C@@H]32` ?
> 100 µM (inactive)

###

System: RXF 393
protocol description: NCI tumour cell line growth inhibition, 48 h
The source made the active and inactive calls. Rule as the data show it: active = GI50 up to about 1.1 µM and inactive = higher.
Bench note: report the call from Yes for active, No for inactive

CC[C@@]1(O)C(=O)OCc2c1cc1n(c2=O)Cc2c-1nc1ccccc1c2/C=N/NC(=O)C[N+](C)(C)C :: Yes
COc1ccc(NCc2cc(OC)c(OC)c(OC)c2)cc1 :: Yes
COC(=O)C(C)NP(=O)(N1CC1)N1CC1 (centres undefined) :: No
COCOC1CCCC[C@@]1(OCCOCCO[C@@]1(c2ccccc2)CCCC[C@H]1OCOC)c1ccccc1 (some centres undefined) :: No
COC(=O)C(C(=O)C(=O)Nc1ccccc1OC)c1csc(-n2nc(-c3ccccc3)cc2-c2ccccc2)n1 (centres undefined) :: No

Answer briefly: the call reported for `COc1cc(OC)c(-c2oc3ccccc3c(=O)c2O)c(OC)c1` in this assay.
No

Answer briefly: the call reported for `CC1(C)N=C(/C(Cl)=[N+](/[O-])C(=O)c2ccc(Cl)cc2)C(C)(C)N1O` in this assay.
No

Answer briefly: the call reported for `CN1CCN(C(=S)N(C)C(=O)c2ccco2)CC1` in this assay.
No

Answer briefly: the call reported for `Nc1ccn([C@@H]2C[C@H](CO)[C@@H](O)[C@H]2O)c(=O)n1` in this assay.
No
